For each record, write down the corresponding Papp.
Experiment: passive permeability, PAMPA, ADME assay (AID 1508612)
Conditions: pH 7.4, 30.0 min, 50.0 µM
Give bare numbers, in ×10⁻⁶ cm/s.

Below: 4 compounds and their reported Papp.
{"compound": "CCc1cccc(NC(=O)CSc2nc3ccccc3nc2N2CCCCC2)c1", "Papp / ×10⁻⁶ cm/s": 322}
{"compound": "Fc1cc(Nc2nc(-c3ccncc3)nc3ccccc23)ccc1-c1ccnc(C(F)(F)F)c1", "Papp / ×10⁻⁶ cm/s": 11.6}
{"compound": "CC[C@@]1(O)C(=O)OCc2c1cc1n(c2=O)Cc2cc3ccccc3nc2-1", "Papp / ×10⁻⁶ cm/s": 68.3}
{"compound": "Cc1nnc(N2C(=O)c3oc4ccccc4c(=O)c3C2c2ccc(F)cc2)s1 (stereo not given)", "Papp / ×10⁻⁶ cm/s": 314}

Attention now turns to another entry.
Qu. Endpoint output: Papp of "O=C(Nc1nc(-c2ccccc2)cs1)c1ccncc1NS(=O)(=O)c1ccc(F)cc1F" . Value?
Ans. 798
